# Target desc: T1, Human IL12 (His Tag) (human, UniProt P29459 23-219; P29460 23-328)
# T1 construct: Bought His-tagged heterodimer
# T1 sequence (looked up) 1: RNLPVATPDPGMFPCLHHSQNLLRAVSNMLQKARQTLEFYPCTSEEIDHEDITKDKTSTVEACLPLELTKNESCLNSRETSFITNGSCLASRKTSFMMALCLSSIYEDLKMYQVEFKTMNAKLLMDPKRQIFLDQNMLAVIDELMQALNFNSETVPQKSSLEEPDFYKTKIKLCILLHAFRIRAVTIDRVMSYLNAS
# T1 sequence (looked up) 2: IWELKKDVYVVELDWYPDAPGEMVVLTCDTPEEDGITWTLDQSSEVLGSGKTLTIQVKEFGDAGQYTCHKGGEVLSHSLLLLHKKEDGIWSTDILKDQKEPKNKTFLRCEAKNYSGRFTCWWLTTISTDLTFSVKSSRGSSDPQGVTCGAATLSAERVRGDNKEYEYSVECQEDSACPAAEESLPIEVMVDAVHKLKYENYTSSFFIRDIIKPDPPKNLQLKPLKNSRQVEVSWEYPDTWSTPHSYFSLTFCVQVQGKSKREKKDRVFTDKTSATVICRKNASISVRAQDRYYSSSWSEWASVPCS
# Measurement description: FACS competition, IL-12-His 20 nM on 293T-IL-12Rβ1&IL-23R cells; antibody 3.33 µg/mL
Endpoint label: MFI (MFI)
Numbers only here, please. The scale is MFI.

Consider the following illustrative entries.
Binder | Unit symbol | Recorded number
ustekinumab (antibody, V domains shown) VH: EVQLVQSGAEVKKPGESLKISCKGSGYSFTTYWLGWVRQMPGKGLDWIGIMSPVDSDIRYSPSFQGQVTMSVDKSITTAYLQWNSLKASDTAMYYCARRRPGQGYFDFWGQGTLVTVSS VL: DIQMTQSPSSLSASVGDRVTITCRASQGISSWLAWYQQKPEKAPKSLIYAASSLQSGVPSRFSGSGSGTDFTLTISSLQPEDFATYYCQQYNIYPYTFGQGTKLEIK | MFI | 29.7
H5L9 (antibody, human IgG1, kappa, V domains shown, human IgG1 (P01857) / kappa (P01834) constant regions; also called humanized antibody H5L9) VH: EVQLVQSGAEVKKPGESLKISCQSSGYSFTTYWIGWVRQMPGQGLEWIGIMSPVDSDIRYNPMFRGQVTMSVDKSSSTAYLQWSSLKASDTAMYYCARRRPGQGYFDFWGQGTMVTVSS VL: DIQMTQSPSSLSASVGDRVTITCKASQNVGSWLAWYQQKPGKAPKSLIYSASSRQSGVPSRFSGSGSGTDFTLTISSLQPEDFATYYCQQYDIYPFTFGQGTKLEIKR | MFI | 146

Kindly review the next binder as well.
Query: Name the reported MFI value associated with the binder H5L14 (antibody, human IgG1, kappa, V domains shown, human IgG1 / kappa constant regions; also called humanized antibody H5L14) VH: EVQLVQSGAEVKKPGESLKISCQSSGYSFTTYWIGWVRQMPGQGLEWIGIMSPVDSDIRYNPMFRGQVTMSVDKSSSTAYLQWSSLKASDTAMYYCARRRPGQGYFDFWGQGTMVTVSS VL: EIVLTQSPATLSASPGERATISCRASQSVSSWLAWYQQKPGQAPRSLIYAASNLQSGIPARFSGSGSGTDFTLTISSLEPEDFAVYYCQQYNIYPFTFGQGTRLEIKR
Reply: 51.9
